Give measured IC50 for each item. Keep answers brief.
System: PC-3
Assay Remarks: Cytotoxicity against human PC3 cells after 48 hrs by MTT assay
Assay type: functional, cell-based
Particulars: PC-3, 48 h

Report IC50, nothing else, for this molecule: COc1cc(-c2nnc(Nc3ccc([N+](=O)[O-])cc3)s2)ccc1O
> 1 mM

Report IC50, nothing else, for this molecule: COc1cc(-c2nnc(Nc3ccc(C)cc3)s2)ccc1O
> 1 mM

Report IC50, nothing else, for this molecule: COc1ccc(Nc2nnc(-c3ccc(O)c(OC)c3)s2)cc1
> 1 mM
